tested on: KM12 colon; assay: NCI-60 one-dose screen, 48 h (100 = growth as untreated, 0 = no growth, -100 = all killed); conditions: 10 µM unless noted
Compounds without any hit were thinned out: in the full panel of roughly 83,000, 20% have a hit.
experimentalReadout: growth (%)
Provide the reading as a plain figure in %.

Recorded growth, per entry:
[[record]]
compound = "CN(C)N1C(=O)c2c(Cl)c(Cl)c(Cl)c(Cl)c2C1=O"
experimentalreadout = "growth"
quantitativereadout = 113

[[record]]
compound = "O=C(O)CSc1ccc(NCc2oc(CO)cc(=O)c2O)cc1"
experimentalreadout = "growth"
quantitativereadout = 100

[[record]]
compound = "COc1ccc(C(=O)OC2C(OC3C(O)COC(O[C@H]4C[C@H]5[C@@H]6CC=C7C[C@@H](O)CC[C@]7(C)[C@H]6CC[C@]5(C)[C@H]4[C@H](C)C(=O)CCC(C)C)C3OC(C)=O)OCC(O)C2O)cc1 (some centres undefined)"
experimentalreadout = "growth"
quantitativereadout = 24.1


Provide only the value of recorded growth for "O=c1nc(-c2ccccc2)c2cc(-c3ccc(N4CCOCC4)cc3)ccc2[nH]1" 85.7

Provide only the value of recorded growth for "COc1ccc(Oc2nc(Nc3ccc(N4CCOCC4)cc3)ncc2NC(=O)Nc2cccc(OC)c2)cc1" 59.2

---

system: MOLT-4 leukemia; test: NCI-60 one-dose screen, 48 h; details: 10 µM unless noted
This is part of a sample that, as a whole, favours compounds with a hit. Of some 83,000 tested, about 20% had one in any assay. Calls of active or inactive are those of the source. How the source made its calls: active means growth percent below 10; inactive means the rest.
Respond only with the outcome that fits, drawn from t = active, f = inactive

Below, 2 compounds whose answers are already recorded.
[[record]]
compound = "Oc1c(C(Nc2ccccc2Br)c2ccccc2)ccc2cccnc12 (stereo not drawn)"
class = "t"

[[record]]
compound = "CO[C@H](C(=O)[C@@H](O)[C@@H](C)O)[C@@H]1Cc2cc3cc(O[C@H]4C[C@@H](O[C@H]5C[C@@H](O)[C@H](O)C(C)O5)[C@H](O)C(C)O4)c(C)c(O)c3c(O)c2C(=O)[C@H]1O[C@H]1C[C@@H](O[C@H]2C[C@@H](O[C@H]3C[C@](C)(O)C(=O)C(C)O3)[C@@H](O)C(C)O2)[C@H](O)C(C)O1 (stereo partly drawn)"
class = "t"


Turning to the following compound.
Could you check what this test reported for "Cc1c(C(N)=O)sc2ncn(CC(=O)NN=C3CCCCC3)c(=O)c12" ? f

---

test system: U251 CNS; experiment: NCI-60 one-dose screen, 48 h (100 = growth as untreated, 0 = no growth, -100 = all killed); conditions: 10 µM unless noted
This is part of a sample that, as a whole, favours compounds with a hit. Of some 83,000 tested, about 20% had one in any assay.
Returns true (1) if the recorded growth is greater than or equal to 90%, and false (0) otherwise.

Below, 4 molecules whose answers are already recorded.
[[record]]
molecule = "COc1ccccc1CNCCCN1C(=O)c2ccc3c4c(ccc(c24)C1=O)C(=O)N(CCCOCCCCOCCCN)C3=O"
class = "false (0)"

[[record]]
molecule = "Cc1c(C(=O)CCl)c(=O)n(-c2ccccc2)n1C"
class = "false (0)"

[[record]]
molecule = "CCOC(=O)C1=C(C(=O)OCC)N(c2cc(OC)c(OC)c(OC)c2)C(N)=C(C#N)C1c1cc(=O)[nH]c2ccccc12 (stereo not given)"
class = "true (1)"

[[record]]
molecule = "CCOCCNc1ccc(S(=O)(=O)c2ccc(N)cc2)cc1N"
class = "true (1)"


State whether the measured growth reaches 90%, counting equality as reaching it, for "NNC(=O)CSc1nc2scc(-c3ccccc3)c2c(=O)n1-c1ccccc1" true (1)

State whether the measured growth reaches 90%, counting equality as reaching it, for "CCN(CC)c1ccc(/C=N/N=C(N)N)cc1" false (0)

State whether the measured growth reaches 90%, counting equality as reaching it, for "CCSc1cnnc2ccccc12" true (1)

---

test system: 786-0 renal; assay: NCI-60 one-dose screen, 48 h; conditions: 10 µM unless noted
This is part of a sample that, as a whole, favours compounds with a hit. Of some 83,000 tested, about 20% had one in any assay. Calls of active or inactive are those of the source. The calls were made as follows: active = growth percent below 10; inactive = the rest.
Respond only with the outcome that fits, drawn from YES = active, NO = inactive

Below, 6 compounds whose answers are already recorded.
[[record]]
compound = "CC(=O)Nc1ccc(/C=N/N2CCCCCC2)cc1"
class = "NO"

[[record]]
compound = "CCOC(=O)c1ccc2c(c1)[n+](=O)c(C(=O)c1ccc3ccccc3c1)c(C(F)(F)F)n2[O-]"
class = "YES"

[[record]]
compound = "O=C(N/N=C\\c1cc(Br)ccc1O)c1ccncc1"
class = "NO"

[[record]]
compound = "CN(C)CCCn1c(=O)c2cc([N+](=O)[O-])ccc2c2cnc3[nH]ccc3c21"
class = "YES"

[[record]]
compound = "CCSCC1CC(O)(c2ccccc2)C(c2ccccc2)C(c2ccc(F)cc2)O1 (stereo not given)"
class = "YES"

[[record]]
compound = "COc1cc(C2CC(c3ccc(C)cc3)=NN2C=O)ccc1Oc1nc2c(c(=O)n(C)c(=O)n2C)n1C (stereo not given)"
class = "NO"


Could you check what this test reported for "Cc1ccc(C)c(NC(=O)c2sc3c(=O)[nH]cnc3c2C)c1" ? NO

Could you check what this test reported for "O=c1c2cc(Cl)ccc2oc2ccc(OCCCCCN3CCCCCC3)cc12" ? NO

Could you check what this test reported for "COc1ccccc1-[n+]1cc(-c2ccc(-c3ccccc3)cc2)n2c1CCCCC2" ? NO

Could you check what this test reported for CCCCCCCCOC(=O)C(C)OC(=O)OCCOCCOC(=O)OC(C)C(=O)OCCCCCCCC (stereo not given) ? NO

---

system: OVCAR-8 ovarian; assay: NCI-60 one-dose screen, 48 h; details: 10 µM unless noted
About 83,000 compounds went through this panel and 20% of them were active in at least one assay; those are over-represented in the sample as a whole. Activity calls are given as the source filed them. Rule for the calls: active = growth percent below 10; inactive = the rest.
Respond only with the outcome that fits, drawn from label 1 for active, label 0 for inactive

[[record]]
compound = "CCN(C(=O)CCl)C(C)(C)C(SSSC(c1ccc(Cl)cc1)C(C)(C)N(CC)C(=O)CCl)c1ccc(Cl)cc1 (stereo not given)"
systemtested = "OVCAR-8 ovarian"
class = "label 0"

[[record]]
compound = "O=C(CCCCCCN1CC(=O)N2[C@@H](c3ccc(Cl)c(Cl)c3)c3[nH]c4ccccc4c3C[C@H]2C1=O)NO"
systemtested = "OVCAR-8 ovarian"
class = "label 0"

[[record]]
compound = "O=C1Nc2ccc(Br)cc2/C1=N/c1nc(-c2ccccc2)cs1"
systemtested = "OVCAR-8 ovarian"
class = "label 0"

[[record]]
compound = "O=C(/C=C/c1ccccc1)c1c[nH]c2ccccc2c1=O"
systemtested = "OVCAR-8 ovarian"
class = "label 1"


Turning to the following compound.
Could you check what this test reported for "CC1(C)CC(=O)c2cc3c(N)c(C(=O)Nc4ccc(Cl)cc4)sc3nc2C1" ? label 0

---

test system: SW-620 colon; test: NCI-60 one-dose screen, 48 h (100 = growth as untreated, 0 = no growth, -100 = all killed); details: 10 µM unless noted
The panel holds about 83,000 compounds, 20% with a hit somewhere; the sample as a whole holds those more often.
experimentalReadout: growth (%)
Provide the reading as a plain figure in %.

Recorded growth, per entry:
[[record]]
compound = "COc1cc(OC)c2sc(-c3ccc(-n4cncc4-c4ccc(OC)c(N)c4)cc3)nc2c1"
experimentalreadout = "growth"
u = "%"
quantitativereadout = 89.1

[[record]]
compound = "CCCCCCCCCCCCCCCCCC(=O)[O][Sn]([CH2]CCC)([CH2]CCC)[CH2]CCC"
experimentalreadout = "growth"
u = "%"
quantitativereadout = -83.6

[[record]]
compound = "O=C(CCCCCCN1CC(=O)N2[C@@H](c3ccc(Cl)c(Cl)c3)c3[nH]c4ccccc4c3C[C@H]2C1=O)NO"
experimentalreadout = "growth"
u = "%"
quantitativereadout = 33

[[record]]
compound = "C=C(COC(C)=O)[C@H]1CC/C(C)=C/CC/C(C)=C/CC[C@@]2(C)O[C@H]2C1"
experimentalreadout = "growth"
u = "%"
quantitativereadout = 112

[[record]]
compound = "CCOC(=O)C1=C(C(=O)OCC)N(c2cc(OC)c(OC)c(OC)c2)C(N)=C(C#N)C1c1cc(=O)[nH]c2ccccc12 (centres undefined)"
experimentalreadout = "growth"
u = "%"
quantitativereadout = 99.2

[[record]]
compound = "Nc1c(N)c2ccccc2c2ccccc12"
experimentalreadout = "growth"
u = "%"
quantitativereadout = 103

[[record]]
compound = "CCCNCCC(C)=O"
experimentalreadout = "growth"
u = "%"
quantitativereadout = 97.6

[[record]]
compound = "O=C(CCl)Nc1ccc2c(c1)C(=O)c1ccccc1C2=O"
experimentalreadout = "growth"
u = "%"
quantitativereadout = -78.6

[[record]]
compound = "CC(=O)Nc1c(Br)cc2c(c1Br)Cc1cc(Br)ccc1-2"
experimentalreadout = "growth"
u = "%"
quantitativereadout = 41.7

[[record]]
compound = "Clc1ccc(C2=NN[C@H](c3cn(-c4ccccc4)nc3-c3ccccc3)C2)cc1"
experimentalreadout = "growth"
u = "%"
quantitativereadout = 48.7


Provide only the value of recorded growth for "CC(=O)Oc1ccccc1C(=O)Nc1ncc([N+](=O)[O-])s1" 26.7

Provide only the value of recorded growth for COc1ccc(C2=NNC(c3ccc(Oc4nc5c(c(=O)n(C)c(=O)n5C)n4C)c(OC)c3)C2)cc1 (centres undefined) 109

Provide only the value of recorded growth for "CC(C)[C@@]12C[C@@H](OC(=O)[C@H]3CO3)[C@@](C)(O1)[C@@H]1CC[C@@H](C)[C@H]1[C@@H]2OC(=O)/C=C/c1ccccc1" 94.8

Provide only the value of recorded growth for "CC(=O)Nc1ccc(/C=N/N2CCCCCC2)cc1" 100

Provide only the value of recorded growth for "C=C(C)[C@@H]1CC[C@]2(C(=O)NC(COC(=O)C(Cl)Cl)(COC(=O)C(Cl)Cl)COC(=O)C(Cl)Cl)CC[C@]3(C)[C@H](CC[C@@H]4[C@@]5(C)CC[C@H](OC(C)=O)C(C)(C)[C@@H]5CC[C@]43C)[C@@H]12" 62.1

Provide only the value of recorded growth for "Oc1ccccc1-c1nnc(COc2ccc(Cl)cc2Cl)o1" 51.2

Provide only the value of recorded growth for "COc1ccc2[nH]cc(C3(c4c[nH]c5ccc(OC)cc45)C(=O)Nc4ccc(Cl)cc43)c2c1" 30

Provide only the value of recorded growth for "CS(=O)(=O)c1ccc(C(=O)N/N=C/c2cccc3ccccc23)cc1" 63.2

Provide only the value of recorded growth for "COc1nccc2c(Sc3ccccc3)nc(N)nc12" 109
